biological target: T1, Human CD3 on Human CD3+ Jurkat cells (human, UniProt P07766 23-207); test: cell binding, human CD3+ Jurkat cells
T1 construct: whole, on cells; CD3 complex on cells; also called hCD3
T1 sequence (P07766 23-207): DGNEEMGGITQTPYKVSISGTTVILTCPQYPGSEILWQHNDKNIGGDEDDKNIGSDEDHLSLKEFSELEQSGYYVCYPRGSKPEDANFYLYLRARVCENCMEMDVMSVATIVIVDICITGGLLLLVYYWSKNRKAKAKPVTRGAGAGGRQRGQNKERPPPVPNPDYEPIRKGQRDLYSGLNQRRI
measured.parameter: Cell Binding Fold Over Background (FOB)
// note: answer is a bare numeric in FOB

// solved cases for Cell Binding Fold Over Background (FOB) follow
1) ADI-45975 (antibody, V domains shown, also called Ab11) VH: QVQLVQSGAEVKKPGASVKVSCKASGFNIKDYYMHWVRQAPGQRLEWIGWIDLENANTVYDAKFQGRVTITRDTSASTAYMELSSLRSEDTAVYYCARDAYGQYFYDVWGQGTLVTVSS VL: DIVMTQSPDSLAVSLGERATINCKSSQSLLNARTRKNYLAWYQQKPGQPPKLLIYWASTRESGVPDRFSGSGSGTDFTLTISSLQAEDVAVYYCKQSYFRRTFGGGTKVEIK	10
2) ADI-46366 (antibody, V domains shown, also called Ab50) VH: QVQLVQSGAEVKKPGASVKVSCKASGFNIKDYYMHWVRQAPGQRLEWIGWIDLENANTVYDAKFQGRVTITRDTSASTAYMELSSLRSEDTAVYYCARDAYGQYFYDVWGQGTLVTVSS VL: DIVMTQSPDSLAVSLGERATINCKSSQSLLNARTGKNYLAWYQQKPGQPPKLLIYWASTRESGVPDRFSGSGSGTDFTLTISSLQAEDVAVYYCVQSYFRRTFGGGTKVEIK	16

We next turn to a different binder, shown below.
INPUT: Any idea what its Cell Binding Fold Over Background (FOB) is? The binder is ADI-46359 (antibody, V domains shown, also called Ab42) VH: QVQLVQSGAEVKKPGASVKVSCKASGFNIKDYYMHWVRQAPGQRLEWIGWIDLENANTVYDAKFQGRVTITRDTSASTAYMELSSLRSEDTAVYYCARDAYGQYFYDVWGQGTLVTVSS VL: DIVMTQSPDSLAVSLGERATINCKSSQSLLNARTGKNYLAWYQQKPGQPPKLLIYWASTRESGVPDRFSGSGSGTDFTLTISSLQAEDVAVYYCTQSYFRRTFGGGTKVEIK
OUTPUT: 15

Ref: patent US20260209352A1
